- tested.target: Man(a1-6)Man
- assay.summary: glycan array binding signal (z-score within array); higher = stronger binding
- condition.notes: glycan notation: IUPAC condensed, linker removed
The entries come from a sample that favours the strongest signals as a whole.

binder | glycan array binding signal (z-score)
HML-Native (Hypnea musciformis), P84871 (protein) QKFCTLDIAPVCCQIVIGGGMYTAGNACMCEGFVSGVGRCENPKECPCTREAQIPSCCSSRWGLVSVTGKCACDCLGGTVAFPEPCPSPY | -0.3
Gal 1 (Mus musculus), P16045 (protein) MACGLVASNLNLKPGECLKVRGEVASDAKSFVLNLGKDSNNLCLHFNPRFNAHGDANTIVCNTKEDGTWGTEHREPAFPFQPGSITEVCITFDQADLTIKLPDGHEFKFPNRLNMEAINYMAADGDFKIKCVAFE | 0.23
EULS2 M2 (Oryza sativa) (protein) MVYCRANPNYAMTARNGAVVLAPANPKDEYQHWIKDMRWSTSIKDEEGYPAFALVNKATGQAIKHSLGQSHPVRLVPYNPEVMDESVLWTESRDVGNGFRCIRMVNNIYLNFDAFHGDKYHGGVRDGTDIVLWKLCEGDSQRWKIQPYYILEQKLISEEDLNSAVDHHHHHH | 5.83
Arath Fbox LD (Arabidopsis thaliana) (protein) EFSVWLEKASGKRCLMLSAMNLSIIWGDNPQYWQWIPIPESRFEKVAKLRDVCWFEIRGRTNTRVLSPRTRYSAYIVFKGVDKCYGFQNVAIEAAVGVVGQEPSRRLICFSEAIRRGRRNVVKPKQREDGWMEIELGEFFNDGGIMDNDEIEMSALETKQLNRKCGLIIQGIEIRPAKILAAASFLEQKLISEEDLNSAVDHHHHHH | 2.7
rCNL (Clitocybe nebularis), B2ZRS9 (protein) SITPGTYNITNVAYTNRLIDLTGSNPAENTLIIGHHLNKTPSGYGNQQWTLVQLPHTTIYTMQAVNPQSYVRVRDDNLVDGAALVGSQQPTPVSIESAGNSGQFRIKIPNLGLALTLPSDANSTPIVLGEVDETSTNQLWAFESVSAV | -0.294
SBD-G4S3-Fc (protein) MASIPSSASVQLDSYNYDGSTFSGKIYVKNIAYSKKVTVVYADGSDNWNNNGNIIAASFSGPISGSNYEYWTFSASVKGIKEFYIKYEVSGKTYYDNNNSANYQVSTGGGGSGGGGSGGGGSEFVPRDCGCKPCICTVPEVSSVFIFPPKPKDVLTITLTPKVTCVVVDISKDDPEVQFSWFVDDVEVHTAQTQPREEQFNSTFRSVSELPIMHQDWLNGKEFKCRVNSAAFPAPIEKTISKTKGRPKAPQVYTIPPPKEQMAKDKVSLTCMITDFFPEDITVEWQWNGQPAENYKNTQPIMDTDGSYFVYSKLNVQKSNWEAGNTFTCSVLHEGLHNHHTEKSLSHSPGAA | -0.195
